Tested on: High affinity choline transporter 1 (Homo sapiens), Q9GZV3 [L531A,V532A]
Sequence (Q9GZV3 whole entry L531A/V532A): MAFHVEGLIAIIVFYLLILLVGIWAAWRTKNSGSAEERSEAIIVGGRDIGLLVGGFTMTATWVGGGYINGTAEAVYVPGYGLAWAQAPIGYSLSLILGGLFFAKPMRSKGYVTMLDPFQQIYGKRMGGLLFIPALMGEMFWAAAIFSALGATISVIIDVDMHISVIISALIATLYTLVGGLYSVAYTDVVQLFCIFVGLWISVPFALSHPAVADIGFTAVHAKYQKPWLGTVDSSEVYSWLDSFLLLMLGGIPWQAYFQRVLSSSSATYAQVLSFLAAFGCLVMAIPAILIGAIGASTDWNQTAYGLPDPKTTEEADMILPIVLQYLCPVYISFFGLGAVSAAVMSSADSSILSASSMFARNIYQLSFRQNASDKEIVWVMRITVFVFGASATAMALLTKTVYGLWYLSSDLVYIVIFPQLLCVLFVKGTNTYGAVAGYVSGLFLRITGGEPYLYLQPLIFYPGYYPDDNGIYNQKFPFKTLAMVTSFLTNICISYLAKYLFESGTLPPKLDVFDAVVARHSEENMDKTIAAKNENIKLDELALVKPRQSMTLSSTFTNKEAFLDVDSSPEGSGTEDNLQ
Test: Inhibition of human CHT […] mutant expressed in HEK293 cells assessed as remaining transporter activity at 5 uM in presence of 10 uM [3H]choline by [3H]choline uptake assay
Assay type: cell-based
Kindly return t if reported Activity is no lower than 30%; return f if it is lower.

Field: example entries. Status: answers known.
>  <COMPOUND>
COc1ccc(C(=O)NCc2cc(C(C)C)no2)cc1OC1CCN(C(C)C)CC1

>  <GROUP>
f

$$$$
>  <COMPOUND>
COc1ccc(C(=O)NCc2cc(C(C)C)no2)cc1OCCN1CCCCC1

>  <GROUP>
f

$$$$
>  <COMPOUND>
COc1ccc(C(=O)NCc2cc(C(C)C)no2)cc1O

>  <GROUP>
t

$$$$

*Q* Entry COc1ccc(C(=O)NCc2cc(C(C)C)no2)cc1OC1CCNCC1 : is its Activity no less than 30%?
*A* f

*Q* API: above_or_equal(metric=Activity, cutoff=30%) for item COc1ccc(C(=O)NC(C)Cc2ccccn2)cc1OC1CCN(C(C)C)CC1 (configuration not stated)
*A* f
